pIC50, EP2 (Homo sapiens): measured values
pIC50: −log10 of the molar value.
metric: pIC50

>>> measured_value("O=C(O)CC1CC2(C1)CC(NC(=O)c1cc(Cl)cc3cnn(Cc4ccc(-c5ccccc5)c(F)c4)c13)C2 (stereo not shown) [Example 152]")
7.31
>>> measured_value("CCOc1cc(-c2ccc(Cn3ccc4c(F)ccc(C(=O)NC5CC6(C5)CC(C(=O)O)C6)c43)cc2)ccn1 (stereo not shown) [Example 48]")
7.57
>>> measured_value("COc1cc(C#N)cc(-c2ccc(C(C)n3ncc4c(Cl)ccc(C(=O)NC5CC6(C5)CC(C(=O)O)C6)c43)cc2)c1 (racemic) [Example 123]")
7.22
>>> measured_value("O=C(NC1CC2(C1)CC(C(=O)O)C2)c1cc(Cl)cc2cnn(Cc3ccc(-c4ccccc4)c(F)c3)c12 (stereo not shown) [Example 153]")
7.02

----------
Assay: Relative activity of resolved enantiomers/diastereomers (assay not stated)
Conditions: compared with the other eluting peak
metric: more active enantiomer / diastereomer after chiral SFC resolution

>>> measured_value("[2H]C1(C(=O)O)CC2(CC(NC(=O)c3ccc(F)c4ccn(Cc5ccc(-c6ccccc6)cc5)c34)C2)C1 (stereo not drawn) [Example 105]")
"more active enantiomer"
>>> measured_value("O=C(NC1CC2(C1)CC(C(=O)O)C2)c1ccc(F)c2ccn(Cc3ccc(-c4ccncc4)cc3)c12 (stereo not drawn) [Example 24]")
"more active enantiomer"
>>> measured_value("CC(c1ccc(-c2ccccc2)cc1)n1ncc2cccc(C(=O)NC3CC4(C3)CC(C(=O)O)C4)c21 (single isomer, unassigned) [Example 125]")
"more active diastereomer"
>>> measured_value("O=C(NC1CC2(C1)CC(C(=O)O)C2)c1ccc(F)c2ccn(Cc3ccc(-c4ccccc4)cc3)c12 (stereo not drawn) [Example 9]")
"more active enantiomer"
>>> measured_value("CC(c1ccc(-c2ccccc2)cc1)n1ncc2cc(Cl)cc(C(=O)NC3CC4(C3)CC(C(=O)O)C4)c21 (single isomer, unassigned) [Example 174]")
"more active diastereomer"
>>> measured_value("O=C(NC1CC2(C1)CC(C(=O)O)C2)c1ccc(F)c2ccn(Cc3ccc(OC(F)(F)F)cc3)c12 (stereo not drawn) [Example 8]")
"more active enantiomer"

----------
Biological target: UniProt:P35408
Sequence (P35408 whole entry): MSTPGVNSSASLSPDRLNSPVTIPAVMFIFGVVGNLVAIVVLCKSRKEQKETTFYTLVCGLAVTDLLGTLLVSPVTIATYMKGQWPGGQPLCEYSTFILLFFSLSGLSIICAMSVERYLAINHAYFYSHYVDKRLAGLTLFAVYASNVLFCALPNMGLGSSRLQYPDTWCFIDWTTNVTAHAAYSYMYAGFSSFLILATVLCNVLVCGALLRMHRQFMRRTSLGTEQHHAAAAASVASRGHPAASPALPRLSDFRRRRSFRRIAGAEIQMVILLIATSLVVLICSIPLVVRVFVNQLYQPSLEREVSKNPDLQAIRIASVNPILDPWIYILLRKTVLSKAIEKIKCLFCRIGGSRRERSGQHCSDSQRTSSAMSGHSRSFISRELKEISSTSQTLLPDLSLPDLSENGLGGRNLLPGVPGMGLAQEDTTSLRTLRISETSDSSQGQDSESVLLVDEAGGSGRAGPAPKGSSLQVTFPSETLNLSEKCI
Assay: Functional calcium flux assay, EP4
Conditions: stably transfected HEK293 cells; PGE2 10 nM; read-out: EP4 Ca2+-flux assay IC50
// NB: equality with 3 nM counts as n; only IC50 strictly below is y

>>> class("COc1cc(C#N)cc(-c2ccc(Cn3ccc4c(F)ccc(C(=O)NC5CC6(C5)CC(C(=O)O)C6)c43)cc2)c1 (stereo not shown) [Example 49]")
"y"
>>> class("CCOc1cccc(-c2ccc(C(C)n3ncc4cccc(C(=O)NC5CC6(C5)CC(C(=O)O)C6)c43)cc2)n1 (racemic)")
"y"
>>> class("CCOc1cc(-c2ccc(Cn3ccc4c(Cl)ccc(C(=O)NC5CC6(C5)CC(C(=O)O)C6)c43)cc2)ccn1 (stereo not shown)")
"y"
>>> class("[2H]C([2H])([2H])Oc1cccc(-c2ccc(Cn3ccc4c(F)ccc(C(=O)NC5CC6(C5)CC(C(=O)O)C6)c43)cc2)c1 (stereo not shown)")
"y"
>>> class("CCOc1nccc(-c2ccc(Cn3ncc4c(Cl)ccc(C(=O)NC5CC6(C5)CC(C(=O)O)C6)c43)cc2)n1 (stereo not shown)")
"y"
>>> class("COc1ccc2cc(Cn3ncc4c(Cl)ccc(C(=O)N[C@H]5CC6(C5)C[C@H](C(=O)O)C6)c43)ccc2n1 (stereo partly shown)")
"n"
>>> class("O=C(NC1CC2(C1)CC(C(=O)O)C2)c1ccc(Cl)c2cnn(Cc3ccc(-n4cccn4)cc3)c12 (stereo not shown)")
"y"
>>> class("O=C(NC1CC2(C1)CC(C(=O)O)C2)c1ccc(Cl)c2cnn(Cc3ccc(OC(F)(F)F)cc3)c12 (stereo not shown)")
"n"
>>> class("CC(c1ccc(N2C[C@H]3C[C@H]3C2)cc1)n1ncc2c(Cl)ccc(C(=O)NC3CC4(C3)CC(C(=O)O)C4)c21 (single isomer, unassigned) [Example 132]")
"y"
>>> class("CCOc1cc(-c2ccc(Cn3ccc4c(OC)ncc(C(=O)NC5CC6(C5)CC(C(=O)O)C6)c43)cc2)ccn1 (stereo not shown)")
"y"
>>> class("O=C(O)CC1CC2(C1)CC(NC(=O)c1cc(F)cc3cnn(Cc4ccc(-c5ccccc5)cc4)c13)C2 (racemic)")
"y"
>>> class("CCOc1cc(-c2ccc(Cn3ccc4c(F)ccc(C(=O)NC5CC6(C5)CC(C(=O)O)C6)c43)cc2)ccn1 (racemic) [Example 36]")
"y"
